# target: Protein smoothened (Homo sapiens, UniProt Q99835, D473H)
# Sequence (Q99835 28-787 D473H limits assumed): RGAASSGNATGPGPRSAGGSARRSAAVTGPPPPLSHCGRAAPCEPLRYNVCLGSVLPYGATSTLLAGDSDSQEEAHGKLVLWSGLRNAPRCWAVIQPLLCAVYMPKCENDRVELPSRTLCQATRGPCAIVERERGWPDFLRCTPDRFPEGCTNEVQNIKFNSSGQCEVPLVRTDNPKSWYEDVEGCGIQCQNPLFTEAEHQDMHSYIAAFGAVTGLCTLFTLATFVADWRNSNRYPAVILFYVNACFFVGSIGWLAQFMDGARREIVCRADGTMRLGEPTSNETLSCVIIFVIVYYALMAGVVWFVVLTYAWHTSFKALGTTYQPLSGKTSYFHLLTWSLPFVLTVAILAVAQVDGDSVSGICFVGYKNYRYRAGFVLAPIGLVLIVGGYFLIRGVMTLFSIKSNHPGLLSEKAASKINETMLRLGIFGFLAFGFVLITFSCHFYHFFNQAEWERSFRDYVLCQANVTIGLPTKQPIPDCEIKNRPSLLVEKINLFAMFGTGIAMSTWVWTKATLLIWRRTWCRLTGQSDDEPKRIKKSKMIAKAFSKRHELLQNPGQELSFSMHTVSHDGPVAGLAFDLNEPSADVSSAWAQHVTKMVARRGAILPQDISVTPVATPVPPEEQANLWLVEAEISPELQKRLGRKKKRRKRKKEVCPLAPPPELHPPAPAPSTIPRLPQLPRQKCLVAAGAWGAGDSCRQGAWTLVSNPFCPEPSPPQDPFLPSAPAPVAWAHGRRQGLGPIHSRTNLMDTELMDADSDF
# run description: Antagonist activity at resistant Smo D473H mutant (unknown origin) expressed in mouse C3H 10T1/2 cells cotransfected with Gli reporter gene assessed as Gli luciferase activity incubated for 24 hrs by dual luciferase assay
# Type: functional, cell-based
endpoint label: IC50 (nM)
Numbers only, in nM.

Q: Return IC50 measured with Protein smoothened (Homo sapiens, UniProt Q99835, D473H) given this molecule: Cc1c(Cc2ccccc2)nnc(N2CCN(c3cnc(C(C)(C)O)cn3)[C@H](C)C2)c1C
Ans: 96

###

# run description: Cytotoxicity against human D384 Med cells assessed as reduction in cell viability incubated for 48 hrs by Cell TiterGlo luminescent assay
# Format: functional, cell-based
# conditions used: pooled result: one value given for 10 cell lines, strains, targets or settings
endpoint label: IC50

Q: For Nc1cc(C(F)(F)F)c(-c2cc(N3CCOCC3)nc(N3CCOCC3)n2)cn1 [BUPARLISIB] , what is its reported IC50?
Ans: 279 nM

###

# run description: Inhibition of hedgehog signalling in mouse Shh Light II cells assessed as luciferase activity
# Type: cell-based
endpoint label: pIC50
One number for each entry, as −log10 of the molar value.

Q: Value lookup for pIC50; key = Cc1cc(/C=C/c2ccc3cc(N(C)C)ccc3[n+]2C)c(C)n1-c1ccccc1
Ans: 8.00

###

# Test system: D283 Med
# run description: Antiproliferative activity against human D283 Med cells assessed as inhibition of cell proliferation incubated for 48 hrs by MTS assay
# Assay type: functional, cell-based
endpoint label: pIC50
Numbers only, as −log10 of the molar value.

Q: I am curious: what pIC50 value has been reported for Fc1ccc(CNc2ncnc3c2cnn3CC(Cl)c2ccc(Cl)cc2)cc1 (stereo unspecified) ?
Ans: 5.31

###

# run description: Anticancer activity against human UW426 cells assessed as reduction in cell viability incubated for 72 hrs by CCK assay
# Type: functional, cell-based
# conditions used: UW426, 72 h
endpoint label: pIC50
Numbers only, as −log10 of the molar value.

Q: Which pIC50 is reported for this compound? Cc1[nH]c2ccccc2c1CCNCc1ccc(/C=C/C(=O)NO)cc1 [PANOBINOSTAT]
Ans: 7.17

###

# run description: Inhibition of hedgehog signalling in mouse Shh Light II cells co-transfected with Gli firefly luciferase assessed as inhibition of Gli luciferase expression measured after 30 hrs by luciferase reporter assay
# Type: cell-based
endpoint label: IC50 (nM)
Give bare numbers, in nM.

Q: Dear colleague, I am looking for the recorded IC50 of the following molecule: C[C@H](CO)N1C[C@H](C)[C@H](CN(C)S(=O)(=O)c2ccc(Cl)cc2Cl)Oc2c(NC(=O)C3CC3)cccc2C1=O
Ans: 60

###

# target: Protein smoothened (Mus musculus)
# Sequence (P56726 whole entry): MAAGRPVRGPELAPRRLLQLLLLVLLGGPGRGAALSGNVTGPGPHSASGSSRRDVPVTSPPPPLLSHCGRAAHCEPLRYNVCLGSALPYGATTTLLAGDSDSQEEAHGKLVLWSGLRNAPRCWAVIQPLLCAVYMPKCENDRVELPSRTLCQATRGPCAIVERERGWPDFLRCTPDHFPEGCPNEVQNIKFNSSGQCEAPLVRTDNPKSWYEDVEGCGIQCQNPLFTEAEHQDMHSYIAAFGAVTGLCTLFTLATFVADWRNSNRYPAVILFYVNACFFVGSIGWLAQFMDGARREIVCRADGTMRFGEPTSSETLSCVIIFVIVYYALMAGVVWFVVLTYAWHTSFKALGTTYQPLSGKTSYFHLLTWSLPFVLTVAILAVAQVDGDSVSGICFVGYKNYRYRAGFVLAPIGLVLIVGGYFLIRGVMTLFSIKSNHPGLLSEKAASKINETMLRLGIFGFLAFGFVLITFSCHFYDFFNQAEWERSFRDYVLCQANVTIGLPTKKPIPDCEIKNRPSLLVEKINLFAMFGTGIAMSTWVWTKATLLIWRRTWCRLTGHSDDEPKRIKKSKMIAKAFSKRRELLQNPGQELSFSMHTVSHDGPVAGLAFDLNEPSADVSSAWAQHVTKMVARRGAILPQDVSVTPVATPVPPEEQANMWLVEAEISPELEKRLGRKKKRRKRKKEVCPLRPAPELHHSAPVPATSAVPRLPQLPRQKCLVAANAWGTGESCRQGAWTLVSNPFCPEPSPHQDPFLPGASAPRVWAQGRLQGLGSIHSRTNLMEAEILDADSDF
# run description: Inhibition of endogenous mouse Smo overexpressed in mouse C3H 10T1/2 cells cotransfected with Gli reporter gene assessed as Gli luciferase activity by dual luciferase assay
endpoint label: pIC50
Numbers only, as −log10 of the molar value.

Q: Fill in the blank: the reported pIC50 of C[C@@H]1CN(c2ccc(C(=O)Nc3ccc(Cl)c(NC(=O)c4cccc(Cl)c4)c3)cn2)C[C@H](C)N1 is ____.
Ans: 7.57

###

# target: Vascular endothelial growth factor receptor 2 (Homo sapiens)
# Sequence (P35968 whole entry, the tested form may be a part): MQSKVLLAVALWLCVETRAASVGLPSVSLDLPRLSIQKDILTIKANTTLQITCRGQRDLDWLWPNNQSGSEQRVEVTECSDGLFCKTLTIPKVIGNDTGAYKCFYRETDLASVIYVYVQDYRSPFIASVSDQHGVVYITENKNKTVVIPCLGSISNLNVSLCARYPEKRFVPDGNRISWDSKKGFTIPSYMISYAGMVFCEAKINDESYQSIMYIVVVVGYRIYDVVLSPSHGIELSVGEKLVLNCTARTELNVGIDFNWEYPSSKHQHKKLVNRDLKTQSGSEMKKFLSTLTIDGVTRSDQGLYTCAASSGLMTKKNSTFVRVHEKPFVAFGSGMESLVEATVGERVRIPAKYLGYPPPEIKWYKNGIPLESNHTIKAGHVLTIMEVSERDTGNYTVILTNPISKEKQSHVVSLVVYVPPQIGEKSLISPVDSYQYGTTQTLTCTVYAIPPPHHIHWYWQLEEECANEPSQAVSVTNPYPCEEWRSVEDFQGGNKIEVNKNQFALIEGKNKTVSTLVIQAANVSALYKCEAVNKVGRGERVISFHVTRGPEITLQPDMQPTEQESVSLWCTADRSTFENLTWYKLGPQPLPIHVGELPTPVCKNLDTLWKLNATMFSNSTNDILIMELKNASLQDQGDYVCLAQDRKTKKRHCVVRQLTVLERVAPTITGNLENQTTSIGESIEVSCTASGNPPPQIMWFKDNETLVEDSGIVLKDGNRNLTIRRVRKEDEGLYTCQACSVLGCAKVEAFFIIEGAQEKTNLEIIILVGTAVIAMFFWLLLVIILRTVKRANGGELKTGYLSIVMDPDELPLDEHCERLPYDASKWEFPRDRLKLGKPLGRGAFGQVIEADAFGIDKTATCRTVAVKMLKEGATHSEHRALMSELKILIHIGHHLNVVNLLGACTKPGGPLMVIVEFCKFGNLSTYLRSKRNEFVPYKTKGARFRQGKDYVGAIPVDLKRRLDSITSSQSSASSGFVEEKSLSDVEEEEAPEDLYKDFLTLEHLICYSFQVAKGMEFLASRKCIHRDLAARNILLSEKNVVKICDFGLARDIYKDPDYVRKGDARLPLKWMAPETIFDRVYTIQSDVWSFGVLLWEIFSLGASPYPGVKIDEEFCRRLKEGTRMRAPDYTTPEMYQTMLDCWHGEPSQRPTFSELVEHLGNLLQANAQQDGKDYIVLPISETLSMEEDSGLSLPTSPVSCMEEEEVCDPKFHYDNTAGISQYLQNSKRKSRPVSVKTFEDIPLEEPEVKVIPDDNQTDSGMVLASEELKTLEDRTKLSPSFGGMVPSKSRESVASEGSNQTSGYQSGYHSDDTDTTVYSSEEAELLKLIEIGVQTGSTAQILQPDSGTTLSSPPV
# run description: Inhibition of human VEGFR2 (789 to 1356 residues) assessed as reduction in autophosphorylation at Y1175 residues using poly (Glu4Tyr1) peptide and ATP as substrate incubated for 60 mins by ADP-Glo Kinase Assay
endpoint label: IC50 (µM)
Give bare numbers, in µM.

Q: Value wanted: IC50 (Vascular endothelial growth factor receptor 2 (Homo sapiens)) of entry COC(=O)Nc1nc2cc(C(=O)c3ccccc3)ccc2[nH]1
Ans: 4.3

###

# run description: Anticancer activity against human UW228 cells assessed as reduction in cell viability incubated for 72 hrs by CCK assay
# Type: functional, cell-based
# conditions used: UW228, 72 h
endpoint label: IC50 (nM)
Give bare numbers, in nM.

Q: Which IC50 is reported for this compound? Cc1[nH]c2ccccc2c1CCNCc1ccc(/C=C/C(=O)NO)cc1 [PANOBINOSTAT]
Ans: 54

###

# run description: Anticancer activity against human MED-MEB-8A cells assessed as reduction in cell viability incubated for 72 hrs by CCK assay
# Type: functional, cell-based
endpoint label: IC50 (nM)
Numbers only, in nM.

Q: Fill blank: measured IC50 of the compound Cc1[nH]c2ccccc2c1CCNCc1ccc(/C=C/C(=O)NO)cc1 is ____.
Ans: 46
